- TGT: CD73 (Homo sapiens, UniProt P21589, K145S/K147S/K478S/N311D/N333D/N403D/N53D/T376A)
- Construct: His6 (C); made in house
- PROTOCOL_DESCRIPTION: CD73 inhibition, malachite green assay
- Format: biochemical

[
  {
    "MOLECULE": "Nc1nc2c(ncn2[C@@H]2O[C@H](COP(=O)(O)CP(=O)(O)O)[C@@H](O)[C@H]2O)c(=O)[nH]1 [GMPCP]",
    "Ki, nM": 135
  }
]

###

- TGT: CD73 (Homo sapiens, UniProt P21589, K145S/K147S/K478S/N311D/N333D/N403D/N53D/T376A)
- Construct: His6 (C); made in house
- PROTOCOL_DESCRIPTION: Substrate preference of CD73 for nucleoside monophosphates, malachite green assay
- Format: biochemical
- MEASUREMENT_PARAMETERS: 1 mM substrate, 1.25 ng CD73
Label 1 when percentage activity relative to AMP (100%) >= 50%; otherwise -1.

[
  {
    "MOLECULE": "Nc1ccn([C@H]2C[C@H](O)[C@@H](COP(=O)(O)O)O2)c(=O)n1 [dCMP, 2′-Deoxycytidine 5′-monophosphate]",
    "TGT": "CD73 (Homo sapiens, UniProt P21589, K145S/K147S/K478S/N311D/N333D/N403D/N53D/T376A)",
    "LABEL": -1
  },
  {
    "MOLECULE": "Nc1ccn([C@@H]2O[C@H](COP(=O)(O)O)[C@@H](O)[C@H]2O)c(=O)n1 [CMP, Cytidine 5′-monophosphate]",
    "TGT": "CD73 (Homo sapiens, UniProt P21589, K145S/K147S/K478S/N311D/N333D/N403D/N53D/T376A)",
    "LABEL": 1
  },
  {
    "MOLECULE": "O=c1ccn([C@@H]2O[C@H](COP(=O)([O-])[O-])[C@@H](O)[C@H]2O)c(=O)[nH]1.[Na+].[Na+] [UMP, Uridin-5'-Monophosphate Dinatriumsalz]",
    "TGT": "CD73 (Homo sapiens, UniProt P21589, K145S/K147S/K478S/N311D/N333D/N403D/N53D/T376A)",
    "LABEL": 1
  },
  {
    "MOLECULE": "Nc1nc2c(ncn2[C@@H]2O[C@H](COP(=O)([O-])[O-])[C@@H](O)[C@H]2O)c(=O)[nH]1.[Na+].[Na+]",
    "TGT": "CD73 (Homo sapiens, UniProt P21589, K145S/K147S/K478S/N311D/N333D/N403D/N53D/T376A)",
    "LABEL": -1
  },
  {
    "MOLECULE": "Nc1nc2c(ncn2[C@H]2C[C@H](O)[C@@H](COP(=O)(O)O)O2)c(=O)[nH]1 [dGMP, 2′-Deoxyguanosine 5′-monophosphate]",
    "TGT": "CD73 (Homo sapiens, UniProt P21589, K145S/K147S/K478S/N311D/N333D/N403D/N53D/T376A)",
    "LABEL": -1
  }
]

###

- TGT: CD73 (Homo sapiens, UniProt P21589, K145S/K147S/K478S/N311D/N333D/N403D/N53D/T376A)
- Construct: His6 (C); made in house
- Sequence (P21589 27-549 N53D/K145S/K147S/N311D/N333D/T376A/N403D/K478S limits assumed): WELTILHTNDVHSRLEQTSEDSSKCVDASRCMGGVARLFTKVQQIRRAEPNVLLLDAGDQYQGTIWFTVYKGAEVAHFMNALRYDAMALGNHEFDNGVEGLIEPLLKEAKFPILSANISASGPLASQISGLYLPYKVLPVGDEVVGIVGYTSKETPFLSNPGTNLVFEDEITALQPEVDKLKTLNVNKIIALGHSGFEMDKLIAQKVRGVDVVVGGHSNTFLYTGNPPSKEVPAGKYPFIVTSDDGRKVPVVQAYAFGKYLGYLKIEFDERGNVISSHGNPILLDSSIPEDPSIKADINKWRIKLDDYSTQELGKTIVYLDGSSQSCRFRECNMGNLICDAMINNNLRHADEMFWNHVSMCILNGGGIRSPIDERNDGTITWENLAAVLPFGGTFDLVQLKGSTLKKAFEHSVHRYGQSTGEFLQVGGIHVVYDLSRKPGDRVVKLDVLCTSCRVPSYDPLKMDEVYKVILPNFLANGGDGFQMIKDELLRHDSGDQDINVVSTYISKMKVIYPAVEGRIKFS
- PROTOCOL_DESCRIPTION: CD73 inhibition, malachite green assay
- Assay type: biochemical

[
  {
    "COMPOUND": "Nc1nc2c(ncn2[C@@H]2O[C@H](COP(=O)(O)CP(=O)(O)O)[C@@H](O)[C@H]2O)c(=O)[nH]1 [GMPCP]",
    "IC50": "1420 nM"
  }
]

Reference source: paper PMC8677862
